Numbers sourced from patent US20060049177A1.

Recorded CC50 for the following compounds
Test system: MT-4 cells
measurementProtocol: cytotoxicity in mock-infected MT-4 cells (MTT)
Give the quantity in µM, number only.

// worked examples, CC50 included
* Cc1cc(C)c(C)c(Cc2nc(N)nc(Nc3ccc(C#N)cc3)n2)c1C | 43.8
* Nc1nc(Cc2c(Cl)cccc2Cl)nc(Nc2ccc(Cl)cc2)n1 | 47.5

Next compound, CC50 to be filled in.
query: Quote MT-4 cells CC50 for entry N#Cc1ccc(Nc2nc(Cc3c(Cl)cccc3Cl)nc(NCC(O)CO)n2)cc1 (centres unmarked) .
result: 59.7

###

Recorded CC50 for the following compounds
Tested on: MT-4 cells
measurementProtocol: cytotoxicity in mock-infected MT-4 cells (MTT)
Protocol: A rapid, sensitive and automated assay procedure was used for the in vitro evaluation of anti-HIV agents. […] The viability of both HIV- and mock-infected cells was assessed spectrophotometrically via the in situ reduction of 3-(4,5-dimethylthiazol-2-yl)-2,5-diphenyltetrazolium bromide (MTT). […] The percent protection achieved by the compound in HIV-infected cells was calculated by the following formula: [formula] […]
Give the quantity in µM, number only.

// worked examples, CC50 included
- N#Cc1ccc(Nc2nc(Cc3c(Cl)cccc3Cl)nc(NCCCCO)n2)cc1: 36.1
- CCO.Cl.N#Cc1ccc(Nc2nc(N)nc(C(CC3CC3)c3c(Cl)cccc3Cl)n2)cc1 (centres unmarked): 53.4
- Cc1ccc(C)c(Cc2nc(N)nc(Nc3ccc(C#N)cc3)n2)c1 [Compound 57]: 36.8
- CN(C)CCCNc1nc(Cc2c(Cl)cccc2Cl)nc(Nc2ccc(C#N)cc2)n1: 9.6
- N#Cc1ccc(Nc2nc(N)nc(Cc3c(F)cccc3C(F)(F)F)n2)cc1: 20

query: Query CC50 for N#Cc1ccc(Nc2nc(Cc3c(Cl)cccc3Cl)nc(NCCN)n2)cc1
result: 10.4

query: Query CC50 for N#Cc1ccc(Nc2nc(Cc3c(Cl)cccc3Cl)nc(NCCOCCO)n2)cc1
result: 46.8

query: Query CC50 for N#Cc1cccc(Nc2nc(N)nc(Cc3c(Cl)cccc3Cl)n2)c1
result: 53.6

###

Tested on: MT-4 cells
measurementProtocol: cytotoxicity in mock-infected MT-4 cells (MTT)
Recorded CC50 for the following molecules
Give the quantity in µM, number only.

// worked examples, CC50 included
• N#Cc1ccc(Nc2nc(Cc3c(Cl)cccc3Cl)nc(NCCc3cccs3)n2)cc1 = 53
• CONc1nc(Cc2c(Cl)cccc2Cl)nc(Nc2ccc(C#N)cc2)n1 = 40.9
• N#Cc1ccc(Nc2nc(Cc3c(Cl)cccc3Cl)nc(NC3CCOC3=O)n2)cc1 (stereo not drawn) = 83.4
• CCOC(=O)Nc1nc(Cc2c(Cl)cccc2Cl)nc(Nc2ccc(C#N)cc2)n1 = 85
• N#Cc1ccc(Nc2nc(Cc3c(Cl)cccc3Cl)nc(NCCCN)n2)cc1 = 16.5

query: Query CC50 for COc1ccc(C(C)=O)cc1Cc1nc(N)nc(Nc2ccc(C#N)cc2)n1
result: 71.4

query: Query CC50 for Cl.N#Cc1ccc(Nc2nc(Cc3c(Cl)cccc3Cl)nc(NO)n2)cc1.O
result: 8.9

query: Query CC50 for N#Cc1ccc(Nc2nc(Cc3c(Cl)cccc3Cl)nc(NCCCO)n2)cc1
result: 51.6

query: Query CC50 for N#Cc1ccc(Nc2nc(Cc3c(Cl)cccc3Cl)nc(Nc3ccc(C#N)cc3)n2)cc1
result: 6

###

Recorded CC50 for the following molecules
System: MT-4 cells
measurementProtocol: cytotoxicity in mock-infected MT-4 cells (MTT)

* CN(C)c1nc(Cc2c(Cl)cccc2Cl)nc(Nc2ccc(C#N)cc2)n1 | > 100 µM
* N#Cc1ccc(Nc2nc(N)nc(Cc3c(Cl)ccc(Cl)c3Cl)n2)cc1 | > 100 µM
* COC(=O)CNc1nc(Cc2c(Cl)cccc2Cl)nc(Nc2ccc(C#N)cc2)n1 | > 20 µM

Next molecule, CC50 to be filled in.
query: Query CC50 for Cc1ccc(C)c(Cc2nc(N)nc(Nc3ccc(C#N)cc3)n2)c1 [Compound 49]
result: > 20 µM

###

Recorded CC50 for the following compounds
Test system: MT-4 cells
measurementProtocol: cytotoxicity in mock-infected MT-4 cells (MTT)

query: Quote MT-4 cells CC50 for entry CCN(CC)c1nc(Cc2c(Cl)cccc2Cl)nc(Nc2ccc(C#N)cc2)n1 .
result: > 20 µM

query: Quote MT-4 cells CC50 for entry CCOC(=O)CC[C@H](Nc1nc(Cc2c(Cl)cccc2Cl)nc(Nc2ccc(C#N)cc2)n1)C(=O)OCC .
result: > 20 µM

query: Quote MT-4 cells CC50 for entry COc1ccc(OC)c(Cc2nc(N)nc(Nc3ccc(C#N)cc3)n2)c1 .
result: > 100 µM

query: Quote MT-4 cells CC50 for entry N#Cc1ccc(Nc2nc(N)nc(Cc3cc(C(F)(F)F)ccc3C(F)(F)F)n2)cc1 .
result: > 100 µM

query: Quote MT-4 cells CC50 for entry N#Cc1ccc(Nc2nc(N)nc(Cc3cc(F)ccc3F)n2)cc1 .
result: > 20 µM

query: Quote MT-4 cells CC50 for entry N#Cc1ccc(Nc2nc(N)nc(Cc3cc(F)cc(F)c3)n2)cc1 .
result: > 100 µM

query: Quote MT-4 cells CC50 for entry COc1cc(Cc2nc(N)nc(Nc3ccc(C#N)cc3)n2)cc(OC)c1 .
result: > 20 µM

###

Recorded CC50 for the following molecules
Tested on: MT-4 cells
measurementProtocol: cytotoxicity in mock-infected MT-4 cells (MTT)
Give the quantity in µM, number only.

query: Query CC50 for CN(C)CCNc1nc(Cc2c(Cl)cccc2Cl)nc(Nc2ccc(C#N)cc2)n1
result: 8.7

query: Query CC50 for CCOC(=O)N(C(=O)OCC)c1nc(Cc2c(Cl)cccc2Cl)nc(N(C(=O)OCC)c2ccc(C#N)cc2)n1
result: 40.2

query: Query CC50 for N#Cc1ccc(Nc2nc(N)nc(Cc3ccccc3Cl)n2)cc1
result: 51.6

###

System: MT-4 cells
measurementProtocol: cytotoxicity in mock-infected MT-4 cells (MTT)
Recorded CC50 for the following compounds

// worked examples, CC50 included
* COc1cccc(Cc2nc(N)nc(Nc3ccc(C#N)cc3)n2)c1OC [Compound 50] | > 20 µM
* N#Cc1ccc(Nc2nc(N)nc(Cc3ccccc3)n2)cc1 [Compound 2] | > 100 µM
* N#Cc1ccc(Nc2nc(N)nc(Cc3cccc(OC(F)(F)F)c3)n2)cc1 [Compound 45] | > 100 µM

Next compound, CC50 to be filled in.
query: Quote MT-4 cells CC50 for entry CC(=O)Nc1nc(Cc2c(Cl)cccc2Cl)nc(N(C(C)=O)c2ccc(C#N)cc2)n1 [Compound 40] .
result: > 100 µM
